# system tested: GST-Xa-hAAK1 (Homo sapiens, UniProt Q2M2I8)
# Construct: made in house
# Sequence (Q2M2I8 whole entry): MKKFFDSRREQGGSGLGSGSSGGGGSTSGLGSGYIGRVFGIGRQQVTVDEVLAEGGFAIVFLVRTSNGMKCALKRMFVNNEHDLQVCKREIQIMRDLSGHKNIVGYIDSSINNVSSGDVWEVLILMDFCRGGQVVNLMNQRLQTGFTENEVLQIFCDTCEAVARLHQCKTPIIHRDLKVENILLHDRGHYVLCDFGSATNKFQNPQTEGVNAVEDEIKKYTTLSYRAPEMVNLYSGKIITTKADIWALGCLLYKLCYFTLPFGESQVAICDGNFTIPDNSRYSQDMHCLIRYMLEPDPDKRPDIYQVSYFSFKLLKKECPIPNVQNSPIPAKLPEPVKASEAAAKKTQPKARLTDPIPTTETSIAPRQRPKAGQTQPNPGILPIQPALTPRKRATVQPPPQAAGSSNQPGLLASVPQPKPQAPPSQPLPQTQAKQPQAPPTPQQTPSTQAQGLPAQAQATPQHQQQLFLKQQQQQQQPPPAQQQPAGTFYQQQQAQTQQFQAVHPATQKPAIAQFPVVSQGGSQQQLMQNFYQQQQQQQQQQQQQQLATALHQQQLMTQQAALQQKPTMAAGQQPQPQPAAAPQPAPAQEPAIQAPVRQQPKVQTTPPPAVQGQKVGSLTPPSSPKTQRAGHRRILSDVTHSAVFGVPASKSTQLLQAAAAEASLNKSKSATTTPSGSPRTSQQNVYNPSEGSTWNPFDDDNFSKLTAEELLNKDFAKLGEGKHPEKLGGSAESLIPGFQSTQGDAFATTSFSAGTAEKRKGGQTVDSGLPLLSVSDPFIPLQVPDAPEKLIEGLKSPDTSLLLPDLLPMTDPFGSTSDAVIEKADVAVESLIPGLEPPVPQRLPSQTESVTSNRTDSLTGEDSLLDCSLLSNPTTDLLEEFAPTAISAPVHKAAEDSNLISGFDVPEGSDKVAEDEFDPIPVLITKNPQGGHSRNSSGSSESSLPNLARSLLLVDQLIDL
# protocol notes: AAK1 kinase assay
# Format: biochemical
# measurement conditions: given as IC50 range; ATP 22 μM, 3 hours at room temperature
pIC50: −log10 of the molar value.
readout name: pIC50

compound: CC(C)C[C@H](N)COc1ccc2c3ccncc3c(=O)n(CC3CC3)c2c1
recorded value: 7.00 to 8.00
//
compound: CC(C)C[C@H](N)COc1ccc2c3ccncc3c(=O)n(C)c2c1
recorded value: 8.00 to 9.00
//
compound: Cc1cc2c(cn1)c(=O)n(C)c1cc(OC[C@@H](N)CC(C)C)c(Cl)cc21
recorded value: 7.00 to 8.00
//
compound: Cc1nccc2c1c(=O)[nH]c1cc(OC[C@@H](N)CC(C)C)c(F)cc12
recorded value: 8.00 to 9.00

Request body: readout pIC50, system GST-Xa-hAAK1 (Homo sapiens, UniProt Q2M2I8), query Cc1nccc2c1c(=O)[nH]c1c(F)c(OCC(C)(N)CC(C)C)ccc12 (centres unmarked) . Return the value.
7.00 to 8.00

Attribution: patent US8901305B2
